# assaySystem: Cellular tumor antigen p53 (Homo sapiens) (UniProt P04637)
# Sequence (P04637 whole entry, looked up): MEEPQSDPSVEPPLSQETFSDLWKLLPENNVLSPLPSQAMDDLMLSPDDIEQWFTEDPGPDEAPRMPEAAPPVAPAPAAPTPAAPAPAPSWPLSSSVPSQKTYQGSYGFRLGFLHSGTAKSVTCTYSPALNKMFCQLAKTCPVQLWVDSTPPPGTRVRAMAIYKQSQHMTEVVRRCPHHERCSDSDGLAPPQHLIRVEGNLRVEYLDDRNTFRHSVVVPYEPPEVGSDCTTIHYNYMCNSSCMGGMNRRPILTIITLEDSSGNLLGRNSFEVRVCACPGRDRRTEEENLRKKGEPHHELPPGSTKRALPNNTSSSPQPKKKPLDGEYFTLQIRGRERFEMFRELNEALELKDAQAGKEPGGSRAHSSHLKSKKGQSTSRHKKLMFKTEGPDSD
# experimentalProtocol: TOX21_p53_BLA_p3_ratio: Tox21 HCT-116 p53 Agonism Beta-lactamase Assay, Ratio, Phase 3 (AID 2283596)
Results filed as inconclusive are left out. Calls of active or inactive are those of the source. The calls were made as follows: active = hit-call score of the fitted dose curve at least 0.9, where 1 is the maximum; inconclusive = response in the unintended direction; inactive = score below 0.9.
Outcomes: yes = active, no = inactive

{"compound": "Fc1ccc(C(OCCN2CCN(CCCc3ccccc3)CC2)c2ccc(F)cc2)cc1", "cat": "yes"}
{"compound": "[H+].[H+].[Hg+2].[O-]B([O-])[O-].[c-]1ccccc1", "cat": "yes"}
{"compound": "CCC(=O)O[C@@](Cc1ccccc1)(c1ccccc1)[C@@H](C)CN(C)C", "cat": "no"}
{"compound": "COc1ccc(C(=O)c2c(C)n(CCN3CCOCC3)c3ccccc23)cc1", "cat": "no"}
{"compound": "Nc1ccccc1Cl", "cat": "no"}
{"compound": "O=S(=O)(c1ccccc1)c1ccccc1", "cat": "no"}
{"compound": "Clc1ccc(CO/N=C(\\Cn2ccnc2)c2ccc(Cl)cc2Cl)c(Cl)c1", "cat": "yes"}
{"compound": "CC(C)c1ccc(O)cc1", "cat": "no"}
{"compound": "c1ccc2c(c1)OCC(C1=NCCN1)O2 (stereo unspecified)", "cat": "no"}
{"compound": "Oc1ccc(C2(c3ccc(O)cc3)CCCCC2)cc1", "cat": "yes"}
{"compound": "CCOP(=O)(OCC)SCCSCC (tested in a mixture with another compound)", "cat": "no"}
{"compound": "CCCOC(=O)c1ccccc1C(=O)OCCC", "cat": "no"}
{"compound": "Cc1cc(Cl)ccc1N=CN(C)C", "cat": "no"}
{"compound": "CCCCCCC(=O)O[C@H]1CC[C@H]2[C@@H]3CC[C@H]4CC(=O)C=C(C)[C@]4(C)[C@H]3CC[C@]12C", "cat": "no"}
{"compound": "CCC1(c2cnc[nH]2)Cc2ccccc2C1", "cat": "no"}
{"compound": "CCCCc1c(C)nc(NCC)[nH]c1=O", "cat": "no"}
{"compound": "O=C(NC(=O)c1ccccc1Cl)Nc1ccc(OC(F)(F)F)cc1", "cat": "no"}
{"compound": "O=C(O)c1nn(Cc2ccc(Cl)cc2Cl)c2ccccc12", "cat": "no"}
{"compound": "Oc1ccc(Cl)c(Cl)c1Cl", "cat": "no"}
{"compound": "CN1C[C@H](C(=O)N[C@]2(C)O[C@@]3(O)[C@@H]4CCCN4C(=O)[C@H](Cc4ccccc4)N3C2=O)C=C2c3cccc4[nH]cc(c34)C[C@H]21", "cat": "no"}
{"compound": "Nc1ccc([As](=O)(O)O)cc1", "cat": "no"}
{"compound": "O=P(O)(Oc1ccccc1)Oc1ccccc1", "cat": "no"}
{"compound": "c1cc[n+]2c(c1)-c1cccc[n+]1CC2", "cat": "no"}
{"compound": "c1ccc2c(c1)cc1ccc3cccc4ccc2c1c34", "cat": "yes"}
{"compound": "NCC(O)c1ccc(O)cc1 (stereo unspecified)", "cat": "no"}
{"compound": "COc1ccc2c(c1OC)C(=O)O[C@H]2[C@@H]1c2cc3c(cc2CCN1C)OCO3", "cat": "no"}
{"compound": "Cn1cc(C2=C(c3cn(C4CCN(Cc5ccccn5)CC4)c4ccccc34)C(=O)NC2=O)c2ccccc21", "cat": "yes"}
{"compound": "CC(C)CCON=O", "cat": "no"}
{"compound": "O=C(NCNC(=O)NC1C(=O)NC(=O)N1CO)NC1C(=O)NC(=O)N1CO (stereo unspecified)", "cat": "no"}
{"compound": "CCOC(=O)NC(=S)Nc1ccccc1NC(=S)NC(=O)OCC", "cat": "yes"}
{"compound": "CCCC=NO", "cat": "no"}
{"compound": "ClC=CCCl", "cat": "no"}
{"compound": "CC[C@H]1C[C@@H]2C[C@H]3c4[nH]c5ccc(OC)cc5c4CCN(C2)[C@@H]13", "cat": "no"}
{"compound": "CN(C)c1ccc(N(C)C)cc1", "cat": "no"}
{"compound": "FC(F)OC(F)(F)C(F)Cl (stereo unspecified)", "cat": "no"}
{"compound": "ClP(Cl)(Cl)(Cl)Cl", "cat": "no"}
{"compound": "N#Cc1cc(I)c(O)c(I)c1", "cat": "yes"}
{"compound": "O=C(Cl)C(Cl)Cl", "cat": "no"}
{"compound": "CNC(=O)Oc1cc(C)cc(C(C)C)c1", "cat": "no"}
{"compound": "NCC(O)c1cccc(O)c1 (stereo unspecified)", "cat": "no"}
{"compound": "C=C1CC[C@@]2(O)[C@H]3Cc4ccc(O)c5c4[C@@]2(CCN3CC2CC2)[C@H]1O5", "cat": "no"}
{"compound": "CC(C)OC(=O)C(O)(c1ccc(Cl)cc1)c1ccc(Cl)cc1", "cat": "no"}
{"compound": "C#C[C@]1(O)C=C[C@H]2[C@@H]3CCC4=CC(=O)CC[C@@H]4[C@H]3CC[C@@]21CC", "cat": "no"}
{"compound": "CC[N+](=O)[O-]", "cat": "no"}
{"compound": "CCCN(CCC)CCc1c[nH]c2ccccc12", "cat": "no"}
{"compound": "CC(C)C(Nc1ccc(C(F)(F)F)cc1Cl)C(=O)OC(C#N)c1cccc(Oc2ccccc2)c1 (stereo unspecified)", "cat": "yes"}
{"compound": "C=CCC1([C@H](C)CCC)C(=O)NC(=O)NC1=O", "cat": "no"}
{"compound": "CCCC[n+]1cccc(C)c1", "cat": "no"}
{"compound": "CN1CCc2cc(Cl)c(O)cc2[C@H]2c3ccccc3CC[C@@H]21", "cat": "no"}
{"compound": "COC1=CC=C2[C@H]3Cc4ccc(OC)c5c4[C@@]2(CCN3C)[C@H]1O5", "cat": "no"}
{"compound": "O=CC(Br)(Br)Br", "cat": "no"}

====

# Read-out: Human Leukocyte Antigen - DR isotype (HLADR), HLA-DRA (gene 3122)
# experimentalProtocol: BSK_BE3C_HLADR: BioMAP Diversity Plus: BE3C Assay for Human Leukocyte Antigen - DR isotype (HLADR) Biomarker Activity (AID 2283032)
# studyConditions: primary human bronchial epithelial cells; actives raise or lower the signal
Activity calls are given as the source filed them. The calls were made as follows: active = hit-call score of the fitted dose curve at least 0.9, where 1 is the maximum; inactive = score below 0.9.
Outcome codes: Y = active, N = inactive

{"chemicalStructure": "CC(C)(c1cc(Cl)c(O)c(Cl)c1)c1cc(Cl)c(O)c(Cl)c1", "cat": "Y"}
{"chemicalStructure": "CC(C)COP(=O)(OCC(C)C)OCC(C)C", "cat": "N"}
{"chemicalStructure": "COCC(=O)N(c1c(C)cccc1C)N1CCOC1=O", "cat": "N"}
{"chemicalStructure": "CC1(C)[C@H](C(=O)O[C@H](C#N)c2cccc(Oc3ccccc3)c2)[C@@H]1C=C(Br)Br", "cat": "N"}
{"chemicalStructure": "CC(=O)/C=C/c1ccccc1", "cat": "Y"}
{"chemicalStructure": "CCCOC(=O)c1ccccc1C(=O)OCCC", "cat": "Y"}

====

# experimentalProtocol: UKN4_HCS_LUHMES_neurite_outgrowth: University of Konstanz (UKN) Leist Lab Neurite Outgrowth Assay in human LUHMES cells (UKN4) (AID 2284206)
# studyConditions: actives raise or lower the signal
The source made the active and inactive calls. The calls were made as follows: active = hit-call score of the fitted dose curve at least 0.9, where 1 is the maximum; inactive = score below 0.9.
Labels: active, inactive

{"compound": "C/C(=C/C=C/[C@@H](C)C(=O)O)[C@H]1CN[C@H](C(=O)O)[C@H]1CC(=O)O", "cat": "inactive"}
{"compound": "CC1(C)[C@H](C(=O)O[C@H](C#N)c2cccc(Oc3ccccc3)c2)[C@@H]1C=C(Br)Br", "cat": "inactive"}
{"compound": "CC(=O)Oc1ccc2c3c1O[C@H]1[C@@H](OC(C)=O)C=C[C@H]4[C@@H](C2)N(C)CC[C@@]341", "cat": "inactive"}
{"compound": "Brc1ccc(Oc2ccc(Br)cc2Br)c(Br)c1", "cat": "active"}
{"compound": "CP(=O)(O)CCC(N)C(=O)O (configuration not stated)", "cat": "inactive"}
{"compound": "CC(C)CC(C)c1sccc1NC(=O)c1cn(C)nc1C(F)(F)F (configuration not stated)", "cat": "active"}
{"compound": "O=[As](O)(O)O", "cat": "active"}
{"compound": "C[n+]1ccc(-c2ccccc2)cc1", "cat": "active"}
{"compound": "O=C1N[C@@H]2C(=C[C@H](O)[C@@H](O)[C@H]2O)c2cc3c(c(O)c21)OCO3", "cat": "active"}
{"compound": "[CH3][Hg][Cl]", "cat": "active"}
{"compound": "[O-][Cl+3]([O-])([O-])O", "cat": "inactive"}
{"compound": "COC(=O)[C@H]1[C@@H](OC(=O)c2ccccc2)C[C@@H]2CC[C@H]1N2C", "cat": "inactive"}
